Values from patent US5482967A

biological target: acyl-CoA:cholesterol acyl transferase (ACAT) (Rattus norvegicus); construct: small intestine mucosal microsome fraction of a 6-week-old male Sprague-Dawley rat; from tissue; host or cells: rat small intestine mucosa, microsome fraction; assay: Inhibitory action against acyl-CoA:cholesterol acyl transferase (ACAT), formation of labeled cholesterol ester, small intestine mucosal microsome fraction; assay type: biochemical, male Sprague-Dawley rat; settings: 10^-6 M; read-out: ACAT Inhibitory Rate (%)
Sequence (Q7TQM4 whole entry): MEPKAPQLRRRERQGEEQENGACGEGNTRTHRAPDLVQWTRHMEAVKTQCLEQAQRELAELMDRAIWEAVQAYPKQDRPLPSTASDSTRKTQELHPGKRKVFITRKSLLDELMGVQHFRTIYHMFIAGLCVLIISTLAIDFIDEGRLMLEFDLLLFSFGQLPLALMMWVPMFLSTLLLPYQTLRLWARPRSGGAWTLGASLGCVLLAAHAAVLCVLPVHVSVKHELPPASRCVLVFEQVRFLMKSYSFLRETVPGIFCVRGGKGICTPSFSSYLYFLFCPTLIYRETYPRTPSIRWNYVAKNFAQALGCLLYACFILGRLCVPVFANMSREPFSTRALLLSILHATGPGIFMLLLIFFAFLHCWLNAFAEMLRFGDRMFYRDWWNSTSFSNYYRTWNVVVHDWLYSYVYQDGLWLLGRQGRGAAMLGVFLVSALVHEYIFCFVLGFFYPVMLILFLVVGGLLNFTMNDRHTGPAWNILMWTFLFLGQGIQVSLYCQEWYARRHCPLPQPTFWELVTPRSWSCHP
MEASUREMENT_TYPE: inhibition at 1 µM (%)

                                   compound                               test_target  unit_tag   val
0  CC(C)c1cccc(C(C)C)c1NC(=O)CC1C(=O)N(C)c2ccc(Cl)cc2N1c1ccccc1 (stereo not shown)  acyl-CoA:cholesterol acyl transferase (ACAT) (Rattus norvegicus)         %  96.6
1  Cc1ccc2c(c1)N(c1ccccc1)C(CC(=O)Nc1c(C(C)C)cccc1C(C)C)C(=O)N2C (stereo not shown)  acyl-CoA:cholesterol acyl transferase (ACAT) (Rattus norvegicus)         %  99.5
2  CC(C)c1ccc2c(c1)[C@@H](c1ccc(F)cc1)[C@H](C(=O)Nc1c(C(C)C)cccc1C(C)C)C(=O)O2 (relative stereo)  acyl-CoA:cholesterol acyl transferase (ACAT) (Rattus norvegicus)         %  93.8
3  COc1ccccc1-c1c(CC(=O)Nc2c(OC)cccc2OC)oc(=O)c2ccccc12  acyl-CoA:cholesterol acyl transferase (ACAT) (Rattus norvegicus)         %  99.5
4  CC(C)c1cccc(C(C)C)c1NC(=O)CC1C(=O)N(C)c2ccc(Cl)cc2C1(C)c1ccccc1 (stereo not shown)  acyl-CoA:cholesterol acyl transferase (ACAT) (Rattus norvegicus)         %  99.1
5  CC(C)c1cccc(C(C)C)c1NC(=O)CC1=C(c2ccccc2)c2cc(Cl)ccc2N(C)C1  acyl-CoA:cholesterol acyl transferase (ACAT) (Rattus norvegicus)         %    97
6  CN1C(=O)[C@@H](CC(=O)Nc2ccc(F)cc2F)[C@H](c2ccccc2)c2cc(Cl)ccc21 (relative stereo)  acyl-CoA:cholesterol acyl transferase (ACAT) (Rattus norvegicus)         %    92
